tested on: fluorescein-labeled IRES SLIIb; assay: Time-dependent MALDI-TOF mass spectrometry of SLIIb cleavage; assay type: biochemical, hepatitis C virus; conditions: overhang 5′-geminal diol; MALDI-TOF time dependence
Threshold check on Initial Rate (%Overhang/min), 5′-GemDiol: strictly below 0.8 %Overhang/min is fulfilled; on or above 0.8 %Overhang/min is not fulfilled.

>  <substance>
GGHYRFK-Cu [3-Cu]

>  <assay-target>
fluorescein-labeled IRES SLIIb

>  <discrete-label>
fulfilled

$$$$
>  <substance>
GGHYRAK-Cu [6-Cu]

>  <assay-target>
fluorescein-labeled IRES SLIIb

>  <discrete-label>
not fulfilled

$$$$
>  <substance>
GGHKFRY-Cu [8-Cu]

>  <assay-target>
fluorescein-labeled IRES SLIIb

>  <discrete-label>
fulfilled

$$$$
>  <substance>
GGHYRFA-Cu [7-Cu]

>  <assay-target>
fluorescein-labeled IRES SLIIb

>  <discrete-label>
fulfilled

$$$$
>  <substance>
GGHYAFK-Cu [5-Cu]

>  <assay-target>
fluorescein-labeled IRES SLIIb

>  <discrete-label>
fulfilled

$$$$

====

tested on: fluorescein-labeled IRES SLIIb; test: Time-dependent MALDI-TOF mass spectrometry of SLIIb cleavage; type: biochemical, hepatitis C virus; settings: position A19; 10 μM SLIIb, 10 μM copper-peptide
assay-readout: Relative Initial Rate (Normalized Intensity/min × 1000), position A19

>  <substance>
GGHYRAK-Cu [6-Cu]

>  <result>
- ^a

$$$$
>  <substance>
GGHYRFK-Cu [3-Cu]

>  <result>
- ^a

$$$$
>  <substance>
GGHKFRY-Cu [8-Cu]

>  <result>
- ^a

$$$$

====

system: 5′-fluorescein labeled HCV SLIIb; assay: Reaction kinetics via fluorescence; assay type: biochemical, hepatitis C virus; settings: pseudo Michaelis-Menten, catalytic efficiency
Label rule, in plain words: kcat/KM of 300 M⁻¹ s⁻¹ and up is class 1, under 300 M⁻¹ s⁻¹ is class 0.

>  <substance>
GGHKRFK-Cu [11-Cu]

>  <discrete-label>
class 1

$$$$
>  <substance>
GGHKFRY-Cu [8-Cu]

>  <discrete-label>
class 0

$$$$
>  <substance>
GGHYRAK-Cu [6-Cu]

>  <discrete-label>
class 0

$$$$
>  <substance>
GGHNRFK-Cu [10-Cu]

>  <discrete-label>
class 0

$$$$
>  <substance>
GGHFRFK-Cu [12-Cu]

>  <discrete-label>
class 0

$$$$
>  <substance>
GGHARFK-Cu [4-Cu]

>  <discrete-label>
class 1

$$$$
>  <substance>
GGHDRFK-Cu [9-Cu]

>  <discrete-label>
class 1

$$$$
>  <substance>
GGHYRFA-Cu [7-Cu]

>  <discrete-label>
class 1

$$$$
>  <substance>
GGHYRFK-Cu [3-Cu]

>  <discrete-label>
class 0

$$$$

====

system: fluorescein-labeled IRES SLIIb; test: Time-dependent MALDI-TOF mass spectrometry of SLIIb cleavage; assay type: biochemical, hepatitis C virus; conditions: position C10; 10 μM SLIIb, 10 μM copper-peptide
assay-readout: Relative Initial Rate (Normalized Intensity/min × 1000), position C10

>  <substance>
GGHYRFK-Cu [3-Cu]

>  <result>
- ^a

$$$$
>  <substance>
GGHYRFA-Cu [7-Cu]

>  <result>
- ^a

$$$$
>  <substance>
GGHKFRY-Cu [8-Cu]

>  <result>
- ^a

$$$$
>  <substance>
GGHYRAK-Cu [6-Cu]

>  <result>
- ^a

$$$$
>  <substance>
GGHARFK-Cu [4-Cu]

>  <result>
- ^a

$$$$

====

test system: fluorescein-labeled IRES SLIIb; experiment: Time-dependent MALDI-TOF mass spectrometry of SLIIb cleavage; type: biochemical, hepatitis C virus; settings: position G5; 10 μM SLIIb, 10 μM copper-peptide
assay-readout: Relative Initial Rate (Normalized Intensity/min × 1000), position G5

>  <substance>
GGHYAFK-Cu [5-Cu]

>  <result>
<1 Normalized Intensity/min × 1000

$$$$
>  <substance>
GGHYRFK-Cu [3-Cu]

>  <result>
- ^a

$$$$
>  <substance>
GGHARFK-Cu [4-Cu]

>  <result>
- ^a

$$$$
>  <substance>
GGHYRAK-Cu [6-Cu]

>  <result>
- ^a

$$$$
>  <substance>
GGHYRFA-Cu [7-Cu]

>  <result>
- ^a

$$$$

====

system: fluorescein-labeled IRES SLIIb; assay: Time-dependent MALDI-TOF mass spectrometry of SLIIb cleavage; format: biochemical, hepatitis C virus; conditions: overhang 3′-phosphoglycolate; MALDI-TOF time dependence
assay-readout: Initial Rate (%Overhang/min), 3′-PG

>  <substance>
GGHYRFK-Cu [3-Cu]

>  <units-of-measure>
%Overhang/min

>  <recorded-number>
0.2

$$$$
>  <substance>
GGHYAFK-Cu [5-Cu]

>  <units-of-measure>
%Overhang/min

>  <recorded-number>
0.1

$$$$
>  <substance>
GGHYRFA-Cu [7-Cu]

>  <units-of-measure>
%Overhang/min

>  <recorded-number>
0.2

$$$$
>  <substance>
GGHKFRY-Cu [8-Cu]

>  <units-of-measure>
%Overhang/min

>  <recorded-number>
0.1

$$$$
>  <substance>
GGHARFK-Cu [4-Cu]

>  <units-of-measure>
%Overhang/min

>  <recorded-number>
1.5

$$$$
>  <substance>
GGHYRAK-Cu [6-Cu]

>  <units-of-measure>
%Overhang/min

>  <recorded-number>
1.2

$$$$

====

tested on: fluorescein-labeled IRES SLIIb; assay: Time-dependent MALDI-TOF mass spectrometry of SLIIb cleavage; assay type: biochemical, hepatitis C virus; settings: position U25; 10 μM SLIIb, 10 μM copper-peptide
assay-readout: Relative Initial Rate (Normalized Intensity/min × 1000), position U25

>  <substance>
GGHYRFK-Cu [3-Cu]

>  <assay-target>
fluorescein-labeled IRES SLIIb

>  <result>
- ^a

$$$$
>  <substance>
GGHYRAK-Cu [6-Cu]

>  <assay-target>
fluorescein-labeled IRES SLIIb

>  <result>
- ^a

$$$$
>  <substance>
GGHARFK-Cu [4-Cu]

>  <assay-target>
fluorescein-labeled IRES SLIIb

>  <result>
- ^a

$$$$
>  <substance>
GGHYRFA-Cu [7-Cu]

>  <assay-target>
fluorescein-labeled IRES SLIIb

>  <result>
<1 Normalized Intensity/min × 1000

$$$$
>  <substance>
GGHKFRY-Cu [8-Cu]

>  <assay-target>
fluorescein-labeled IRES SLIIb

>  <result>
<1 Normalized Intensity/min × 1000

$$$$

====

tested on: fluorescein-labeled IRES SLIIb; assay: Time-dependent MALDI-TOF mass spectrometry of SLIIb cleavage; format: biochemical, hepatitis C virus; settings: overhang 3′-phosphates; MALDI-TOF time dependence
If the reported Initial Rate (%Overhang/min), 3′-PO4 equals or exceeds 0.4 %Overhang/min, assign Yes. If not, assign No.

>  <substance>
GGHKFRY-Cu [8-Cu]

>  <discrete-label>
Yes

$$$$
>  <substance>
GGHARFK-Cu [4-Cu]

>  <discrete-label>
No

$$$$
>  <substance>
GGHYRFA-Cu [7-Cu]

>  <discrete-label>
No

$$$$
>  <substance>
GGHYRAK-Cu [6-Cu]

>  <discrete-label>
Yes

$$$$
>  <substance>
GGHYAFK-Cu [5-Cu]

>  <discrete-label>
Yes

$$$$

====

tested on: fluorescein-labeled IRES SLIIb; test: Time-dependent MALDI-TOF mass spectrometry of SLIIb cleavage; assay type: biochemical, hepatitis C virus; conditions: position G11; 10 μM SLIIb, 10 μM copper-peptide
assay-readout: Relative Initial Rate (Normalized Intensity/min × 1000), position G11

>  <substance>
GGHYRFK-Cu [3-Cu]

>  <result>
- ^a

$$$$
>  <substance>
GGHYRAK-Cu [6-Cu]

>  <result>
<1 Normalized Intensity/min × 1000

$$$$
>  <substance>
GGHARFK-Cu [4-Cu]

>  <result>
- ^a

$$$$
>  <substance>
GGHYAFK-Cu [5-Cu]

>  <result>
- ^a

$$$$

====

test system: fluorescein-labeled IRES SLIIb; experiment: Time-dependent MALDI-TOF mass spectrometry of SLIIb cleavage; format: biochemical, hepatitis C virus; conditions: overhang 2′,3′-cyclic phosphates; MALDI-TOF time dependence
assay-readout: Initial Rate (%Overhang/min), 2′, 3′-cPO4

>  <substance>
GGHARFK-Cu [4-Cu]

>  <units-of-measure>
%Overhang/min

>  <recorded-number>
0.5

$$$$
>  <substance>
GGHYRFK-Cu [3-Cu]

>  <units-of-measure>
%Overhang/min

>  <recorded-number>
0.7

$$$$
>  <substance>
GGHYRFA-Cu [7-Cu]

>  <units-of-measure>
%Overhang/min

>  <recorded-number>
0.1

$$$$
>  <substance>
GGHYAFK-Cu [5-Cu]

>  <units-of-measure>
%Overhang/min

>  <recorded-number>
0.2

$$$$
>  <substance>
GGHYRAK-Cu [6-Cu]

>  <units-of-measure>
%Overhang/min

>  <recorded-number>
0.7

$$$$
>  <substance>
GGHKFRY-Cu [8-Cu]

>  <units-of-measure>
%Overhang/min

>  <recorded-number>
0.1

$$$$
